- Test system: cortical neurones
- RUN_DESCRIPTION: Excitotoxicity: glutamate toxicity in cultured cortical neurones (MTT)
- Type: cell-based, rat
- EXPERIMENTAL_PARAMETERS: Rattus norvegicus, Cortical neurone; Table 9; 100 μM glutamate; read-out: Glut Tox IC50
Structures can show the parent of a compound that is named as a salt.
Lab note: cut-off is 20 µM. Strictly less in IC50 is true (1). Exactly 20 µM or more is false (0).

# TODO verify IC50 < 20 µM strictly for this compound: C[C@H]1CCC[C@@](C)(N)C1 (relative stereo)
false (0)

# TODO verify IC50 < 20 µM strictly for this compound: C[C@@H]1CCC[C@@](C)(N)C1 (relative stereo)
false (0)

# TODO verify IC50 < 20 µM strictly for this compound: `CC1(C)CC(CCN)CC(C)(C)C1`
true (1)

# TODO verify IC50 < 20 µM strictly for this compound: CCC[C@@H]1CCC[C@@](C)(N)C1 (relative stereo)
false (0)

# TODO verify IC50 < 20 µM strictly for this compound: CCC[C@@]1(C)C[C@H](C)C[C@@](C)(N)C1 (relative stereo)
true (1)

# TODO verify IC50 < 20 µM strictly for this compound: CC[C@H]1CC(C)(C)C[C@@](C)(N)C1 (relative stereo) [Mrz 2/632]
true (1)

# TODO verify IC50 < 20 µM strictly for this compound: CC[C@@H]1CCC[C@@](C)(N)C1 (relative stereo)
false (0)

# TODO verify IC50 < 20 µM strictly for this compound: `CC1(C)CC(N)CC(C)(C)C1`
true (1)

# TODO verify IC50 < 20 µM strictly for this compound: CCC1(CC)CC(C)(C)CC(C)(N)C1 (stereo not drawn)
true (1)

# TODO verify IC50 < 20 µM strictly for this compound: `CC(C)(N)CC1CC(C)(C)CC(C)(C)C1`
false (0)

# TODO verify IC50 < 20 µM strictly for this compound: CC[C@H]1CCC[C@@](C)(N)C1 (relative stereo)
false (0)

# TODO verify IC50 < 20 µM strictly for this compound: CC[C@H]1CC(C)(C)C[C@](C)(N)C1 [MRZ 2/682, hydrochloride]
true (1)

Where these numbers come from: patent US6034134A
